measured quantity: melting point

compound	measured quantity	reading
CC(=O)c1cc2sc(C)c(N(C)S(=O)(=O)c3cccs3)c2[nH]1	melting point	220 °C
O=C1NC(=O)c2c1c(-c1ccccc1)cc1oc3ccc(O)cc3c21	melting point	288 to 290 °C

Documented melting point of Cn1nc(-c2cccnc2)c2c(C(F)(F)F)cc(-c3cccc(CN4CCOCC4)c3)nc21 : 155 °C

Documented melting point of CCCc1ccccc1OCCCOc1ccc2c(=O)cc(C(=O)O)oc2c1CC : 198 to 199 °C

Documented melting point of O=C(Oc1ccc(F)cc1)Oc1ccc(F)cc1 : 122 to 123 °C

Documented melting point of CSc1nc(C(C)(C)C)nn1C(=O)N(C)C : 51 to 53 °C

Documented melting point of O=[N+]([O-])c1ccc(Cl)c(NC(=S)NCCCO)c1 : 127 °C

Documented melting point of CN(CCNC(=O)Cc1ccc(OCc2ccc(-c3ccccc3)cc2)cc1)C(=O)OC(C)(C)C : 109 to 110 °C

Documented melting point of COc1cc([N+](=O)[O-])c(NC(C)=O)cc1OC(F)F : 116 to 117 °C

Documented melting point of O=C1CCc2sccc21 : 87 to 88 °C

* * *

Reported melting point values for a set of molecules

Consider the worked cases shown below.
molecule	melting point
Cc1cc(-n2ccc(O)cc2=O)sc1C(=O)NCc1cccc(F)c1	140 to 142 °C
CNC(=O)C1(Cl)CC1(Cl)Cl (centres undefined)	71 to 72 °C
CCOC(=O)c1cnc2ccc(-c3ccc(C(F)(F)F)cc3)cn12	118 °C
CCOC(=O)C(Cc1ccccc1)NC(=O)c1cc2cc(Cl)ccc2[nH]1 (centres undefined)	146 to 147 °C
CSc1c(C)nc(C(C)C)nc1O	156 °C

Documented melting point of Nc1ccc(C(=O)NC2CCN(CCCn3cnc4c(N)ncnc43)CC2)cc1 : 247 to 248 °C

Documented melting point of CC(C)OP(=O)(/C=C/C(CO)Cn1cnc2c(N)ncnc21)OC(C)C (centres undefined) : 130 °C

Documented melting point of NS(=O)(=O)c1ccc(-n2nc(C(F)(F)F)cc2-c2ccc(Cl)cc2Cl)cc1 : 153 to 155 °C

* * *

Reported melting point values for a set of compounds
Report the figure in °C without appending any unit label.

smiles	measured quantity	unit of measure	reading
CCOC(=O)[C@H](Cc1ccc(-c2c(OC)cc(CO)cc2OC)cc1)NC(=O)c1c(Cl)cccc1Cl	melting point	°C	121

Switching to the query record.
Documented melting point of COc1cc(Nc2nccc(-c3ccc(C#N)cc3)n2)cc(OC)c1OC : 183

* * *

Reported melting point values for a set of compounds

Consider the worked cases shown below.
compound	melting point
COc1cc(C(F)(F)F)cc(OC)c1-c1ccc(C[C@H](NC(=O)c2c(Cl)cccc2Cl)C(=O)O)cc1	231 to 232 °C
COc1ccccc1N1CCN(c2nc3cccccc-3c2C#N)CC1	141 to 143 °C
N#Cc1c(Br)c(C(F)(F)F)n(CBr)c1-c1ccc(Cl)cc1	131 to 132 °C
COCOc1cc(Cl)ccc1-c1cc(-c2cccc(C(=O)NCCCn3ccnc3)c2)c(C#N)c(NC(=O)c2ccco2)n1	121 to 122 °C

Documented melting point of Cc1cc(Br)c2nc(OCC(F)(F)F)ccc2c1 : 61 to 62 °C

Documented melting point of Cc1nnc2cc(-c3ccncc3)ccn12 : 223 to 226 °C

Documented melting point of CC(CCCO[Si](C)(C)C(C)(C)C)C1CCC2C3CC=C4C(C)(C)C(O[Si](C)(C)C(C)(C)C)CCC4(C)C3CCC12C (centres undefined) : 161 to 162 °C

Documented melting point of CN(C)CC1CCCCN1CCCNC(=O)N1c2ccccc2NC(=O)c2ccccc21 (centres undefined) : 131 to 133 °C

Documented melting point of O=C(Nc1ccc2ccc(Cl)nc2n1)c1ccccc1Cl : 180 °C

Documented melting point of CN(Cc1cc2c(=O)c(C(=O)NCc3ccc(Cl)cc3)cn(C)c2o1)CC(O)c1cccnc1 (centres undefined) : 145 to 149 °C

Documented melting point of CCCONC(=O)c1c(Cl)ccc(C(=O)OC)c1Cl : 80 to 81 °C

Documented melting point of CCCc1ccc(C(=O)O)c2ccccc12 : 134 to 135 °C

Documented melting point of CO[C@@H]1[C@@H](OC)[C@H](C)O[C@@H](ON(Cc2ccc(-c3ncn(-c4ccc(OC(F)(F)F)cc4)n3)cc2)C(=O)CCC(=O)O)[C@@H]1OC : 61 to 75 °C

Documented melting point of Cc1oc2c(C)c(C)c(NC(=O)c3ccc(F)cc3)c(C)c2c1-c1ccccc1 : 242 to 245 °C

Documented melting point of CCN1CCCC1CNC(=O)c1nc(Cl)c(OC)nc1OC (centres undefined) : 100 to 101 °C

Documented melting point of Cc1nc(Cc2ccc(NC(=O)/C=C/c3cnn(C)c3-c3ccc(F)cc3)cc2)cs1 : 192 to 193 °C

Documented melting point of O=C(c1ccc(O)cc1)c1nn(C2CCCC2)c2c(C(F)(F)F)cccc12 : 225 to 226 °C

Documented melting point of COc1ccc(C(=O)Nn2c(=O)[nH]c3ccccc3c2=O)cc1 : 289 °C

Documented melting point of Cc1cc(Cl)cc(C(=O)N(Cc2ccccc2)C2(C)CNC2)c1NC(=O)c1cc(C(F)(F)F)nn1-c1ncccc1Cl : 127 to 130 °C

* * *

measured quantity: melting point

Consider the worked cases shown below.
compound	melting point
O=C1OCc2c1nc1ccc3c(c1c2-c1ccc2c(c1)OCO2)OCO3	272 to 274 °C
CCC1(CC)c2cc(I)ccc2-c2ccc(-c3nc4ccccc4s3)cc21	158 to 160 °C

Documented melting point of CCCCNC(=O)Nc1ncc2cc(-c3c(Cl)cccc3Cl)c(NC(=O)NCCCC)nc2n1 : 200 to 202 °C

Documented melting point of CCCNC(=N)NC(=O)NCc1ccccn1 : 195 to 197 °C

* * *

measured quantity: melting point

1. CCOC(=O)C1=C(C)NC(C)=C(C(=O)OCC)C1c1c(C)sc2ccccc12 191 to 193 °C
2. COC(=O)C[C@H](O)C[C@H](O)C=Cc1c(-c2ccc(F)cc2)c(-c2ccccc2)c(C(=O)NCc2ccc(F)cc2)n1C(C)C 68 to 69 °C

Documented melting point of O=C(CCc1conc1-c1ccc(Cl)cc1)NCc1cccc(C(F)(F)F)c1 : 80 to 81 °C

Documented melting point of CCCCc1nc2ccccc2n1CC(=O)O : 70 to 71 °C

Documented melting point of CC1(C)CC(O)CC(C)(C)N1Cc1ccccc1 : 151 to 152 °C

* * *

Reported melting point values for a set of compounds

compound	melting point
COc1cc(OC)nc(-c2c(C)[nH]c3c(C)cccc23)n1	145 to 147 °C
CCOCc1nc2c(N)nc3ccccc3c2n1CC1(O)CCN(C)CC1	198 °C
COc1ccc(CNc2ncnc3c(N4CCOCC4)nc(N4CCC(N(C)C)CC4)nc23)cc1	124 to 126 °C
O=C(O)c1cc(C(F)(F)F)ccc1O	149 to 151 °C
O=S(=O)(O)c1ccc(N(Cc2ccc(F)cc2)Cc2ccc(Cl)cc2)cc1	> 250 °C
C=C(C)C(=O)N(NC(=O)c1ccccc1)C(C)(C)C	148 to 152 °C
CN1C(=O)C(Br)(Br)CC1c1cncc(Br)c1 (stereo not given)	139 to 140 °C
COc1c(/C=C/c2ccc(C#N)cc2)c(C)cc2c1C(C)(C)CCC2(C)C	120 °C
CCN(CC)c1ccc(-c2cc(-c3ccc(C(=O)O)cc3)ccc2CCCNC2CC2)cc1C(C)(C)C	189 °C

Switching to the query record.
Documented melting point of CC(C)OC(=O)c1cc(-n2c(=O)[nH]c3c(c2=O)CCC3)c(F)cc1Cl : 204 to 207 °C

* * *

Reported melting point values for a set of molecules

Consider the worked cases shown below.
molecule	melting point
CSc1sc(-c2cn[nH]c2)c2c1C(=O)CC(C)(C)C2	213 to 215 °C
CCN(CC)S(=O)(=O)c1ccc2c(c1)C(C(Cl)(Cl)Cl)OC(C(Cl)(Cl)Cl)O2 (stereo not given)	125 to 126 °C
O=C(O)c1cccc(-c2nc3cc(N4CCCC4)ccc3o2)c1	248 to 250 °C
Cc1cccc(-c2n[nH]cc2-c2ccc(F)c(-c3c[nH]cn3)c2)n1	229 to 233 °C

Documented melting point of CN1CCN(c2ncnc3oc(-c4ccc([N+](=O)[O-])cc4)c(-c4ccc(F)cc4)c23)CC1 : > 250 °C

* * *

measured quantity: melting point

Consider the worked cases shown below.
molecule	reading
COc1ccc(-c2nc(C(N)=O)oc2-c2ccc(OC)cc2)cc1	133 to 135 °C
O=C(Nc1nc2ccc(OCc3c(Cl)cccc3Cl)cc2[nH]1)C1CC1	133 to 135 °C
O=C1N(Cc2ccc3c(c2)OCCO3)c2ccccc2C12COc1cc3c(cc12)OCCO3 (configuration not stated)	120 to 123 °C
CC1=C(C)C(Cc2csc3ccccc23)N(C)C=C1 (configuration not stated)	185 to 190 °C
CC(C)[C@H](N)C(c1ccccc1)c1ccccc1	71 to 72 °C

Documented melting point of Cc1noc(NS(=O)(=O)c2ccccc2[N+](=O)[O-])c1C : 91 to 94 °C

Documented melting point of CN(C)c1ccc2c(c1)NCC2 : 165 to 167 °C

Documented melting point of COc1cccc(CNC(=O)c2nc3cccc(COCc4ccc(C(=O)O)cc4)c3c(=O)[nH]2)c1 : 230 to 232 °C

Documented melting point of COC(=O)c1cc(Br)c(O)c(C(C)=O)c1 : 106 to 108 °C

Documented melting point of COC(=O)C1=C(C)NC(C(OC)OC)=C(C(=O)OC)C1c1cccc([N+](=O)[O-])c1 (configuration not stated) : 99 to 100 °C

Documented melting point of CC/C=C\CCCCCCCCCCOc1ccc(C(C)=O)o1 : 36 to 38 °C

Documented melting point of CC(C)OC(=O)Cc1ccc2c(c1)C(=O)c1ccccc1CO2 : 67 to 68.5 °C

Documented melting point of CCCCNC(=S)Nc1ccccc1N1CCOCC1 : 105 °C

Documented melting point of ON=C1c2ccccc2CSc2ccccc21 : 241 to 243 °C
